System: CCRF/CEM (human leukemia)
PROTOCOL TEXT: Antiproliferative assay in vitro (MTT)
Format: cell-based
CONDITION LABEL: Homo sapiens, CCRF-CEM, read-out: Cytotoxic activity IC50, Human CCRF/CEM
MEASUREMENT LABEL: IC50 (µg/mL)
Report the figure in µg/mL without appending any unit label.

// C#CCOC(=O)OC[C@]12CCC(C(=C)C)C1C1CCC3[C@@]4(C)CC[C@H](O)C(C)(C)C4CC[C@@]3(C)[C@]1(C)CC2 (stereo partly drawn) : IC50 value = 3.2

Field IC50 (entry C=C(C)C1CC[C@]2(COC(C)=O)CC[C@]3(C)C(CCC4[C@@]5(C)CC[C@H](OC(C)=O)C(C)(C)C5CC[C@]43C)C12 (stereo partly drawn) ) reads 34.1

The compound listed as C=C(C)[C@@H]1CC[C@]2(COC(C)=O)CC[C@]3(C)[C@H](CC[C@@H]4[C@@]5(C)CC[C@H](O)C(C)(C)[C@@H]5CC[C@]43C)[C@@H]12 shows IC50 equal to 3.4

----------
Test system: P388 (mouse leukemia)
PROTOCOL TEXT: Antiproliferative assay in vitro (MTT)
Format: cell-based
Experimental: Cytotoxic activities of all newly synthesized compounds including betulin (1) were tested in SRB or MTT (in the case of leukemia cells) assay for their antiproliferative activity in vitro against three human cancer cell lines: SW707 (colorectal adenocarcinoma), CCRF/CEM (leukemia), T47D (breast cancer), and murine leukemia P388 as well as Balb3T3 normal fibroblasts cell lines. […] A value of less than 4 μg/mL was considered as an antiproliferative activity criterion for synthetic compounds [31]. […]
MEASUREMENT LABEL: Cytotoxic activity IC50, Murine P388

response.value for C=C(C)C1CC[C@]2(COC(=O)C#Cc3ccccc3)CC[C@]3(C)C(CCC4[C@@]5(C)CC[C@H](O)C(C)(C)C5CC[C@]43C)C12 (stereo partly drawn) (field: Cytotoxic activity IC50, Murine P388) = Neg

The recorded Cytotoxic activity IC50, Murine P388 for entry C=C(C)C1CC[C@]2(COC(=O)C#Cc3ccccc3)CC[C@]3(C)C(CCC4[C@@]5(C)CC[C@H](OC(=O)C#Cc6ccccc6)C(C)(C)C5CC[C@]43C)C12 (stereo partly drawn) equals Neg

Measured Cytotoxic activity IC50, Murine P388 of C#CCCOC(=O)OC[C@]12CCC(C(=C)C)C1C1CCC3[C@@]4(C)CC[C@H](OC(=O)OCCC#C)C(C)(C)C4CC[C@@]3(C)[C@]1(C)CC2 (stereo partly drawn) : Neg

----------
MEASUREMENT LABEL: melting point

Notebook: C#CCCOC(=O)OC[C@]12CCC(C(=C)C)C1C1CCC3[C@@]4(C)CC[C@H](O)C(C)(C)C4CC[C@@]3(C)[C@]1(C)CC2 (some centres unmarked) , melting point read as 86 to 88 °C

What the record says about C#CCOC(=O)O[C@H]1CC[C@@]2(C)C(CC[C@]3(C)C2CCC2C4C(C(=C)C)CC[C@]4(COC(C)=O)CC[C@]23C)C1(C)C (some centres unmarked) : melting point is 188 to 189 °C

Just so you know, measured melting point for C=C(C)C1CC[C@]2(COC(=O)C#Cc3ccccc3)CC[C@]3(C)C(CCC4[C@@]5(C)CC[C@H](OC(=O)C#Cc6ccccc6)C(C)(C)C5CC[C@]43C)C12 (some centres unmarked) came out at 91 to 92 °C

So for C=C(C)C1CC[C@]2(COC(=O)C#Cc3ccccc3)CC[C@]3(C)C(CCC4[C@@]5(C)CC[C@H](O)C(C)(C)C5CC[C@]43C)C12 (some centres unmarked) , the logged melting point turned out to be 204 to 206 °C

Entry under test: C#CCCOC(=O)OC[C@]12CCC(C(=C)C)C1C1CCC3[C@@]4(C)CC[C@H](OC(=O)OCCC#C)C(C)(C)C4CC[C@@]3(C)[C@]1(C)CC2 (some centres unmarked) . Its melting point was 140 to 142 °C

----------
MEASUREMENT LABEL: melting point

// melting point value for C#CC(=O)OC[C@]12CCC(C(=C)C)C1C1CCC3[C@@]4(C)CC[C@H](OC(=O)C#C)C(C)(C)C4CC[C@@]3(C)[C@]1(C)CC2 (some centres unmarked) [Compound 6a, 3,28-O,O'-Dipropynoylbetulin] : 102 to 104 °C

The measured melting point associated with C#CCCOC(=O)O[C@H]1CC[C@@]2(C)C(CC[C@]3(C)C2CCC2C4C(C(=C)C)CC[C@]4(COC(C)=O)CC[C@]23C)C1(C)C (some centres unmarked) [Compound 8b] reads 118 to 121 °C

Per the record, C=C(C)C1CC[C@]2(COC(=O)OCC#CC)CC[C@]3(C)C(CCC4[C@@]5(C)CC[C@H](O)C(C)(C)C5CC[C@]43C)C12 (some centres unmarked) [Compound 3c, 28-O-(2-Butynyloxycarbonyl)betulin] has melting point of 112 to 114 °C

Lab note: C=C(C)C1CC[C@]2(COC(=O)OCC#CC)CC[C@]3(C)C(CCC4[C@@]5(C)CC[C@H](OC(=O)OCC#CC)C(C)(C)C5CC[C@]43C)C12 (some centres unmarked) [Compound 4c] gave melting point of 70 to 73 °C

Item: C=C(C)C1CC[C@]2(COC(=O)CC)CC[C@]3(C)C(CCC4[C@@]5(C)CC[C@H](O)C(C)(C)C5CC[C@]43C)C12 (some centres unmarked) [Compound 5c, 28-O-Propanoylbetulin] | melting point: 160 to 162 °C

get_value(item= C=C(C)C1CC[C@]2(COC(=O)CC)CC[C@]3(C)C(CCC4[C@@]5(C)CC[C@H](OC(=O)CC)C(C)(C)C5CC[C@]43C)C12 (some centres unmarked) [Compound 6c, 3,28-O,O'-Dipropanoylbetulin] , readout=melting point) returns 142 to 144 °C

Note to self: melting point recorded for C=C(C)C1CC[C@]2(COC(=O)OCC)CC[C@]3(C)C(CCC4[C@@]5(C)CC[C@H](OC(=O)OCC)C(C)(C)C5CC[C@]43C)C12 (some centres unmarked) [Compound 4d, 3,28-O,O'-Di(ethoxycarbonyl)betulin] was 84 to 86 °C

The molecule listed as C=C(C)C1CC[C@]2(COC(=O)OCC)CC[C@]3(C)C(CCC4[C@@]5(C)CC[C@H](O)C(C)(C)C5CC[C@]43C)C12 (some centres unmarked) [Compound 3d, 28-O-Ethoxycarbonylbetulin] shows melting point equal to 94 to 96 °C

Entry C=C(C)C1CC[C@]2(COC(C)=O)CC[C@]3(C)C(CCC4[C@@]5(C)CC[C@H](OC(=O)OCC)C(C)(C)C5CC[C@]43C)C12 (some centres unmarked) [Compound 8d, 28-O-Acetyl-3-O'-(ethoxycarbonyl)betulin] ; melting point = 200 to 202 °C

Please fill in: melting point reported for C=C(C)C1CC[C@]2(COC(C)=O)CC[C@]3(C)C(CCC4[C@@]5(C)CC[C@H](OC(=O)OCC#CC)C(C)(C)C5CC[C@]43C)C12 (some centres unmarked) [Compound 8c] = 126 to 129 °C

molecule C#CCOC(=O)OC[C@]12CCC(C(=C)C)C1C1CCC3[C@@]4(C)CC[C@H](OC(=O)OCC#C)C(C)(C)C4CC[C@@]3(C)[C@]1(C)CC2 (some centres unmarked) [Compound 4a] , melting point observed: 125 to 127 °C

----------
System: P388 (mouse leukemia)
PROTOCOL TEXT: Antiproliferative assay in vitro (MTT)
Assay type: cell-based
CONDITION LABEL: Mus musculus, P388, read-out: Cytotoxic activity IC50, Murine P388
MEASUREMENT LABEL: log10 of IC50 (log10 of the value in µg/mL)
Heads up: the numbers are on a log10 scale; they represent IC50 in µg/mL.

Reported log10 of IC50 ( C=C(C)C1CC[C@]2(COC(=O)OCC#CC)CC[C@]3(C)C(CCC4[C@@]5(C)CC[C@H](OC(=O)OCC#CC)C(C)(C)C5CC[C@]43C)C12 (some centres unmarked) ) = 1.70

Given item C#CC(=O)OCC12CCC(C(=C)C)C1C1CCC3C4(C)CCC(O)C(C)(C)C4CCC3(C)C1(C)CC2 (centres unmarked) , the value recorded as its log10 of IC50 is -0.40

// sample C#CCCOC(=O)OC[C@]12CCC(C(=C)C)C1C1CCC3[C@@]4(C)CC[C@H](O)C(C)(C)C4CC[C@@]3(C)[C@]1(C)CC2 (some centres unmarked) , its log10 of IC50 was 0.56

The compound identified as C=C(C)C1CC[C@]2(COC(=O)CC)CC[C@]3(C)C(CCC4[C@@]5(C)CC[C@H](O)C(C)(C)C5CC[C@]43C)C12 (some centres unmarked) registered its log10 of IC50 at 0.52

Form: compound = C=C(C)[C@@H]1CC[C@]2(COC(C)=O)CC[C@]3(C)[C@H](CC[C@@H]4[C@@]5(C)CC[C@H](O)C(C)(C)[C@@H]5CC[C@]43C)[C@@H]12 ; log10 of IC50 = 1.10
